protocol details: BSK_3C_Proliferation: Cell Proliferation Assessment in the BioMAP Diversity Plus: 3C Assay (AID 2283006)
condition description: primary human endothelial cells (HUVEC)
Active and inactive are the calls of the source. Rule for the calls: active = hit-call score of the fitted dose curve at least 0.9, where 1 is the maximum; inactive = score below 0.9.
Would you mind answering with one of these outcomes? 1.0 (active), 0.0 (inactive)

Hello, I am checking results. What call was entered for CC(=O)C1(C)CC2=C(CCCC2(C)C)CC1C (stereo not drawn) ? 1.0

In this assay, the call recorded for IC(I)I was what? 0.0

// outcome(item) with item = CCCCOC(=O)CCCCCCCC(=O)OCCCC 0.0

Which outcome was assigned to CN(C)C(=S)SC(=S)N(C)C in this test? 1.0

Any idea what this test logged for O=CN1CCOCC1 ? 0.0

What outcome does the record of this test show for C1=CC2C3C=CC(C3)C2C1 (stereo not drawn) ? 0.0

Returns: the outcome recorded for CC(C)(C)CC(C)(C)c1ccc(OCCOCC[N+](C)(C)Cc2ccccc2)cc1 in this assay. 1.0

Which outcome was entered for the compound CSCCC=O in this test? 0.0

---

Read-out: TIMP metallopeptidase inhibitor 2 (TIMP2), TIMP2 (gene 7077)
protocol details: BSK_hDFCGF_TIMP2: BioMAP Diversity Plus: hDFCGF Assay for TIMP metallopeptidase inhibitor 2 (TIMP2) Biomarker Activity (AID 2284289)
condition description: primary human foreskin fibroblasts
The source made the active and inactive calls. The calls were made as follows: active = hit-call score of the fitted dose curve at least 0.9, where 1 is the maximum; inactive = score below 0.9.
result type: outcome

Specify outcome for O=C(Nc1ccc2c(O)c(N=Nc3ccc(N=Nc4ccc(S(=O)(=O)O)cc4)cc3)c(S(=O)(=O)O)cc2c1)c1ccccc1 and stop. inactive

Please report the measured outcome for CC(CN=Cc1ccccc1O)N=Cc1ccccc1O (centres undefined) inactive

State its outcome for this molecule: CCOC(=O)C(C#N)=C(c1ccccc1)c1ccccc1 inactive

Please report the measured outcome for O=CN1CCOCC1 inactive

---

target of assay: Transcription factor E2F1 (Homo sapiens) (UniProt Q01094)
Sequence (Q01094 whole entry, looked up): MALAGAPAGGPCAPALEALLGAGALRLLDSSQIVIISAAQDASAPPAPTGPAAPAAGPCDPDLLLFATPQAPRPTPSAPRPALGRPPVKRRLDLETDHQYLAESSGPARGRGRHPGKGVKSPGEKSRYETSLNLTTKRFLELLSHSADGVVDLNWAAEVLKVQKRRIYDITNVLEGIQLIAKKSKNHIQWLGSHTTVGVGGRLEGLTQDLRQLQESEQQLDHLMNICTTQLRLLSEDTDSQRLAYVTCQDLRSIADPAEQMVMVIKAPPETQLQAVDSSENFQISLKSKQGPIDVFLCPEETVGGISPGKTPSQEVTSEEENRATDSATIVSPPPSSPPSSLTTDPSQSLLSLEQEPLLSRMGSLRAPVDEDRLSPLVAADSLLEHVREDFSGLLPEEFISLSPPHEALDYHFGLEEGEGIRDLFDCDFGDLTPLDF
protocol details: ATG_E2F_CIS: Attagene CIS-FACTORIAL HepG2 Assay for human E2F Transcription Factor 1 (AID 2282935)
condition description: HepG2 Attagene cis-reporter, E2F reporter RNA transcripts; actives raise or lower the signal
Calls of active or inactive are those of the source. Rule for the calls: active = hit-call score of the fitted dose curve at least 0.9, where 1 is the maximum; inactive = score below 0.9.
result type: outcome

For orientation, consider the following solved cases.
# return outcome for Cc1c(C2(c3cc(Br)c(O)c(Br)c3C)OS(=O)(=O)c3ccccc32)cc(Br)c(O)c1Br , test system: Transcription factor E2F1 (Homo sapiens) (UniProt Q01094) inactive

Param request: outcome | system Transcription factor E2F1 (Homo sapiens) (UniProt Q01094) | item C=CC(=C)CCCC(C)(C)OC(C)=O inactive

Name the value of outcome reported for O=C(CS)OCCOC(=O)CS when tested on Transcription factor E2F1 (Homo sapiens) (UniProt Q01094). inactive

Fetch value of outcome on Transcription factor E2F1 (Homo sapiens) (UniProt Q01094) for CC(C=O)Cc1ccc(C(C)(C)C)cc1 (centres undefined) . inactive

// fetch outcome for CCCCCCCCCCCCCC(=O)OCC(O)CO (centres undefined) ; system: Transcription factor E2F1 (Homo sapiens) (UniProt Q01094) inactive

Report measured outcome on Transcription factor E2F1 (Homo sapiens) (UniProt Q01094); entry: O=C(O)c1cc(C(=O)O)cc([N+](=O)[O-])c1 inactive

Provide outcome, tested on Transcription factor E2F1 (Homo sapiens) (UniProt Q01094), for CN1CCOCC1 . inactive

Give outcome only, for CN1C(=O)c2ccccc2C1=O , using Transcription factor E2F1 (Homo sapiens) (UniProt Q01094) data. inactive

Fetch value of outcome on Transcription factor E2F1 (Homo sapiens) (UniProt Q01094) for CCCCCCCCCCCCN1CCCCCC1=O . inactive

# return outcome of c1ccc2[nH]cnc2c1 (system: Transcription factor E2F1 (Homo sapiens) (UniProt Q01094)) inactive

***
Enter measured outcome, system Transcription factor E2F1 (Homo sapiens) (UniProt Q01094), for the compound shown: C=C(C)[C@@H]1CC=C(C)C(=O)C1 inactive

Provide Transcription factor E2F1 (Homo sapiens) (UniProt Q01094) outcome reading for C=CCOC(=O)CCCCCC . inactive

Write outcome of C=C(C)C(=O)OCCOCCOCCOC(=O)C(=C)C ; system used: Transcription factor E2F1 (Homo sapiens) (UniProt Q01094) inactive

Quote Transcription factor E2F1 (Homo sapiens) (UniProt Q01094) outcome for entry COc1ccccc1N=Nc1c(S(=O)(=O)O)cc2cc(S(=O)(=O)O)cc(NC(C)=O)c2c1O . inactive
